Provenance of the data: patent US11192888B2

# System: P. aeruginosa clinical strains and PAO1 (wild-type strain)
# method-notes: Antibiotic sensitivity of P. aeruginosa clinical strains and PAO1 (MIC)
# Assay type: cell-based, Pseudomonas aeruginosa
# protocol-conditions: strain W23
# reported MIC of antibiotic; entries follow

structure-notation	MIC of antibiotic
NC[C@H]1O[C@H](O[C@H]2[C@H](O)[C@@H](O[C@H]3O[C@H](CO)[C@@H](O)[C@H](N)[C@H]3O)[C@H](N)C[C@@H]2N)[C@H](N)C[C@@H]1O	<4 µM
NCC[C@H](O)C(=O)N[C@@H]1C[C@H](N)[C@@H](O[C@H]2O[C@H](CN)[C@@H](O)[C@H](O)[C@H]2O)[C@H](O)[C@H]1O[C@H]1O[C@H](CO)[C@@H](O)[C@H](N)[C@H]1O	<14 µM
C[C@@H](O)[C@H]1C(=O)N2C(C(=O)O)=C(S[C@@H]3CN[C@H](C(=O)N(C)C)C3)[C@H](C)[C@H]12	>45 µM

Quick check: MIC of antibiotic on P. aeruginosa clinical strains and PAO1 (wild-type strain), item C[C@H]1[C@H](NC(=O)/C(=N\OC(C)(C)C(=O)O)c2csc(N)n2)C(=O)N1S(=O)(=O)O ?
<9 µM

====

# Tested on: B. multivorans ATCC17616
# protocol-conditions: ATCC17616, 25 h
*1 amine or outer side, *2 acyl side, *3 side chain or, on linkers, in order; H or OH if unused. Where a SMILES comes first, the peptide text is derived from it. [ ]: non-standard residue; d: D form. dAla(ψthiazole) = C[C@@H](N[*:1])c1nc(C(=O)[*:2])cs1; Trp(4-Br) = N[C@@H](Cc1c[nH]c2cccc(Br)c12)C(=O)O; Trp(4-Cl) = N[C@@H](Cc1c[nH]c2cccc(Cl)c12)C(=O)O; X1 = O=C(/C(=C/c1ccccc1)N[*:1])[*:2]; ΔVal = CC(C)=C(N)C(=O)O; Dhb = C/C=C(\N)C(=O)O; Dha = C=C(N)C(=O)O; Sar = CNCC(=O)O
# reported IC50; entries follow
Lab book: enter the figure in nM, no units written.

Examples from the recorded data:
compound	measured-target	u	IC50
C[C@H]1NC(=O)CNC(=O)[C@H](Cc2c[nH]c3cccc(Br)c23)NC(=O)[C@H](Cc2c[nH]c3ccccc23)NC(=O)c2csc(n2)[C@@H](C)NC(=O)CN(C)C(=O)/C(=C/c2ccccc2)NC1=O [Compound 12] (cyclo(G[dA][X1][Sar][dAla(ψthiazole)]W[Trp(4-Br)]))	B. multivorans ATCC17616	nM	1100
C/C=C1\NC(=O)[C@@H](C)NC(=O)CNC(=O)[C@H](Cc2c[nH]c3cccc(Br)c23)NC(=O)[C@H](Cc2c[nH]c3ccccc23)NC(=O)c2csc(n2)[C@@H](C)NC(=O)CN(C)C1=O [Compound 10] (cyclo([Dhb][Sar][dAla(ψthiazole)]W[Trp(4-Br)]G[dA]))	B. multivorans ATCC17616	nM	840

Would you mind telling me what IC50 value was observed for C=C1NC(=O)[C@@H](C)NC(=O)CNC(=O)[C@H](Cc2c[nH]c3cccc(Cl)c23)NC(=O)[C@H](Cc2c[nH]c3ccccc23)NC(=O)c2csc(n2)[C@@H](C)NC(=O)CN(C)C1=O [Compound 2] (cyclo([Dha][Sar][dAla(ψthiazole)]W[Trp(4-Cl)]G[dA])) ?
2900

Would you mind telling me what IC50 value was observed for CC(C)=C1NC(=O)[C@@H](C)NC(=O)CNC(=O)[C@H](Cc2c[nH]c3cccc(Br)c23)NC(=O)[C@H](Cc2c[nH]c3ccccc23)NC(=O)c2csc(n2)[C@@H](C)NC(=O)CN(C)C1=O [Compound 13] (cyclo(G[dA][ΔVal][Sar][dAla(ψthiazole)]W[Trp(4-Br)])) ?
1540

====

# Tested on: B. multivorans ATCC17616
# protocol-conditions: ATCC17616, 25 h
*1 amine or outer side, *2 acyl side, *3 side chain or, on linkers, in order; H or OH if unused. Where a SMILES comes first, the peptide text is derived from it. [ ]: non-standard residue; d: D form. dAla(ψthiazole) = C[C@@H](N[*:1])c1nc(C(=O)[*:2])cs1; Trp(4-Br) = N[C@@H](Cc1c[nH]c2cccc(Br)c12)C(=O)O; Trp(4-OMe) = COc1cccc2[nH]cc(C[C@H](N)C(=O)O)c12; X2 = CC(C)/C=C(\N[*:1])C(=O)[*:2]; Dha = C=C(N)C(=O)O; Sar = CNCC(=O)O
# reported pIC50; entries follow
Field pIC50 (float): negative decimal logarithm of the concentration in molar.

Examples from the recorded data:
compound	reported-property	reported
C=C1NC(=O)[C@@H](C)NC(=O)CNC(=O)[C@H](Cc2c[nH]c3cccc(Br)c23)NC(=O)[C@H](Cc2c[nH]c3ccccc23)NC(=O)c2csc(n2)[C@@H](C)NC(=O)CN(C)C1=O [Compound 3] (cyclo([Dha][Sar][dAla(ψthiazole)]W[Trp(4-Br)]G[dA]))	pIC50	5.80
CC(C)/C=C1\NC(=O)[C@@H](C)NC(=O)CNC(=O)[C@H](Cc2c[nH]c3cccc(Br)c23)NC(=O)[C@H](Cc2c[nH]c3ccccc23)NC(=O)c2csc(n2)[C@@H](C)NC(=O)CN(C)C1=O [Compound 14] (cyclo(G[dA][X2][Sar][dAla(ψthiazole)]W[Trp(4-Br)]))	pIC50	6.01

// switching to the query compound
Would you mind telling me what pIC50 value was observed for C=C1NC(=O)[C@@H](C)NC(=O)CNC(=O)[C@H](Cc2c[nH]c3cccc(OC)c23)NC(=O)[C@H](Cc2c[nH]c3ccccc23)NC(=O)c2csc(n2)[C@@H](C)NC(=O)CN(C)C1=O [Argyrin A, reference compound] (cyclo(W[Trp(4-OMe)]G[dA][Dha][Sar][dAla(ψthiazole)])) ?
5.51
